Molecular target: T1, DLL3 on SHP-77 cells (human, UniProt Q9NYJ7 27-618)
T1 construct: SHP-77 cells are human-derived, non-engineered SCLC cells
T1 sequence: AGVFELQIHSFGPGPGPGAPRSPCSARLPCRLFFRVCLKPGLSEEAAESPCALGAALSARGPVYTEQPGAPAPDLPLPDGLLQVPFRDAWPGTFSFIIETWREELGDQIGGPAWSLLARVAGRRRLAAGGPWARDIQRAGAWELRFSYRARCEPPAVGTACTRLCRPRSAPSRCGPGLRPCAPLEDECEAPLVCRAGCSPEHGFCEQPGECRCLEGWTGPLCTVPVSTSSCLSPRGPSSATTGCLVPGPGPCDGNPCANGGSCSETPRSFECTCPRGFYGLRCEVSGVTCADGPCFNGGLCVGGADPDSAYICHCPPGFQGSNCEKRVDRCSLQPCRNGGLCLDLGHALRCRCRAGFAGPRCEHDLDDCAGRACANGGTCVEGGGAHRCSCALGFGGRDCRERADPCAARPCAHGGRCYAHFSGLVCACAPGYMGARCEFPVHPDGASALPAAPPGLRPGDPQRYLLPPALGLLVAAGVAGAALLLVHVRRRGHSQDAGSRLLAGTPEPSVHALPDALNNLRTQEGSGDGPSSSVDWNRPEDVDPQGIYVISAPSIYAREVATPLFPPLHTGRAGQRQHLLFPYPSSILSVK
Assay: 177Lu-peptide bound to SHP-77 cells, gamma counting; letter grade, key in paragraph 629
Numbered stars: 1 amine (or outer) side, 2 acyl side, 3 side chain; on linkers, the order of the positions; unused ones are H or OH. Bridge positions count the residues as written; N and C are the ends. Square brackets hold non-standard residues; d marks the D form. * marks the point of attachment. Ala(piperidin-4-yl) = O=C([C@H](CC1CCN([*:3])CC1)N[*:1])[*:2]; DOTA = O=C(O)CN1CCN(CC(=O)O)CCN(CC(=O)*)CCN(CC(=O)O)CC1; Phe(4-CF3) = N[C@@H](Cc1ccc(C(F)(F)F)cc1)C(=O)O; Trp(5-F) = N[C@@H](Cc1c[nH]c2ccc(F)cc12)C(=O)O; Trp(7-aza) = N[C@@H](Cc1c[nH]c2ncccc12)C(=O)O; Pro(trans-4-F) = O=C(O)[C@@H]1C[C@@H](F)CN1; 2Nal = N[C@@H](Cc1ccc2ccccc2c1)C(=O)O; Nva(3-Et) = CCC(CC)[C@H](N)C(=O)O
measured_metric: % Binding

binder	% Binding
Ac-WTIC[Ala(piperidin-4-yl)]N[2Nal]KDCWP[dK](DOTA)-NH2 (disulfide 4-10; not fully specified (residue 8); also: 177Lu chelated in DOTA) [[177Lu]Lu-labelled Cpd No. 326]	< 25%

What % Binding value was documented for this binder, Ac-WTICNN[2Nal]HDCWPK(DOTA)-NH2 (disulfide 4-10; also: 177Lu chelated in DOTA, also called [177Lu]Lu-test peptide) [[177Lu]Lu-labelled Cpd No. 166] ?
≤ 25%

What % Binding value was documented for this binder, Ac-[Trp(5-F)]T[Nva(3-Et)]CNN[Phe(4-CF3)]HDC[Trp(7-aza)][Pro(trans-4-F)][dK](DOTA)-NH2 (disulfide 4-10; also: 177Lu complexed in the DOTA chelator) [[177Lu]Lu-labelled Cpd No. 146] ?
< 25%
